Target: Nitric oxide synthase 1 (Rattus norvegicus, UniProt P29476); further: in other assays of this panel Not Active means under 50% inhibition at 10 µM
Sequence (P29476 whole entry): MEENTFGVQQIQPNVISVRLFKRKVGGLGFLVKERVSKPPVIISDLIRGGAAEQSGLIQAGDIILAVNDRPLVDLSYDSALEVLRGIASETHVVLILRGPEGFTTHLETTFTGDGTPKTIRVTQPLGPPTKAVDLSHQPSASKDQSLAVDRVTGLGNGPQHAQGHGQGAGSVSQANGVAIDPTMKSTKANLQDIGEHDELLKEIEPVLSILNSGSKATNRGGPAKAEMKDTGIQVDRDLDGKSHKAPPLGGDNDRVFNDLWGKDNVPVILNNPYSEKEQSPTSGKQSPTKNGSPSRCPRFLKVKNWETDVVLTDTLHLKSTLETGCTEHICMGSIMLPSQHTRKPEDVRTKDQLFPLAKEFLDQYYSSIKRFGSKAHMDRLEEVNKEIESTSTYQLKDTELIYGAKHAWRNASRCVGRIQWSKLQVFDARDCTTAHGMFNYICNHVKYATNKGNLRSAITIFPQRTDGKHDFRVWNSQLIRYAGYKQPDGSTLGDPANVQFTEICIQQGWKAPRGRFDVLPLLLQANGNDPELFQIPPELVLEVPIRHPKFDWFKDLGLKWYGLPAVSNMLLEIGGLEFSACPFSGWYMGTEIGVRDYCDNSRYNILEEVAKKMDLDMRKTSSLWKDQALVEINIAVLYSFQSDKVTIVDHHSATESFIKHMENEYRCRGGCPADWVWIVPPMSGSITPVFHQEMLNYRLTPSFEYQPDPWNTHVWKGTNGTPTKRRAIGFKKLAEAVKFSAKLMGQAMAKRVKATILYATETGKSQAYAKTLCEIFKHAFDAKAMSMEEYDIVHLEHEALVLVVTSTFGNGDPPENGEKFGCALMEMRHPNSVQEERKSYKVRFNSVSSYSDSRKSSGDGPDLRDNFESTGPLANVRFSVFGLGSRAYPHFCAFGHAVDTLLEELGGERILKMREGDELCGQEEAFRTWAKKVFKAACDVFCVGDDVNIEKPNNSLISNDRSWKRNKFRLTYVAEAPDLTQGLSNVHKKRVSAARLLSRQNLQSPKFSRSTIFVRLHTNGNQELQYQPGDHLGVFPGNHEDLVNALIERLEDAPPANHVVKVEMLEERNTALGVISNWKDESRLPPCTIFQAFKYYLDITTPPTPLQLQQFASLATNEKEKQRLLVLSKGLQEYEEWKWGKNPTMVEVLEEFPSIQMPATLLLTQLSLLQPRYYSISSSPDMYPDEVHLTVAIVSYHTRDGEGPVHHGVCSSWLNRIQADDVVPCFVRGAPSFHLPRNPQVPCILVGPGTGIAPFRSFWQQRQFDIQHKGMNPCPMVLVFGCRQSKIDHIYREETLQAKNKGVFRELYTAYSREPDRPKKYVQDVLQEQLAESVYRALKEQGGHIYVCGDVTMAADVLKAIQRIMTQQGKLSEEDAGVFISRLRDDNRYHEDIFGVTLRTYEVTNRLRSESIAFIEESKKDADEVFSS
Format: tissue-based, Cerebellum
readout.label: Ki

{"substance": "INSULIN HUMAN", "readout.label": "Ki", "result.value": "Not Active"}
{"substance": "STANNOUS FLUORIDE", "readout.label": "Ki", "result.value": "Not Active"}
{"substance": "THIMEROSAL", "readout.label": "Ki", "result.value": "Not Active"}
{"substance": "COBALT(II) ACETYLACETONATE", "readout.label": "Ki", "result.value": "Not Active"}
{"substance": "POLYVINYL ALCOHOL", "readout.label": "Ki", "result.value": "Not Active"}

* * *

Target: Estrogen receptor (Homo sapiens, UniProt P03372); further: in other assays of this panel Not Active means under 50% inhibition at 10 µM
Sequence (P03372 whole entry): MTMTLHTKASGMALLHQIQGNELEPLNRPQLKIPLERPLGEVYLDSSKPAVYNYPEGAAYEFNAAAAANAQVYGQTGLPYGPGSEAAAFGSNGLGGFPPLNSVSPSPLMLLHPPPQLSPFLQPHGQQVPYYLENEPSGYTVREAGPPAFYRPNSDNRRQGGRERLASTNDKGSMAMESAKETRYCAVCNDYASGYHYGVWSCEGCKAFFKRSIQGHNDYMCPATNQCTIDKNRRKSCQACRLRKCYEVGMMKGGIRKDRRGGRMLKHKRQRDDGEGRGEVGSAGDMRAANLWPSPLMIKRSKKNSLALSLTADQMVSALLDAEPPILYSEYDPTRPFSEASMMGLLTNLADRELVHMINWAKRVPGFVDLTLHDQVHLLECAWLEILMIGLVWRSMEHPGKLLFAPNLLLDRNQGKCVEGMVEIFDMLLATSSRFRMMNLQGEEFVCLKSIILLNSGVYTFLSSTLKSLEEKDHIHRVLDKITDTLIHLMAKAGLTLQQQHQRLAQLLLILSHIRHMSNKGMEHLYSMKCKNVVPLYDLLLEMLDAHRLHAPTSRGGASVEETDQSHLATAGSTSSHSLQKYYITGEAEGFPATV
Details: sf9

{"smiles.structure": "C=C(CC)C(=O)c1ccc(OCC(=O)O)c(Cl)c1Cl", "study.system": "Estrogen receptor (Homo sapiens, UniProt P03372)", "IC50": "Not Active"}
{"smiles.structure": "NC[C@@H]1O[C@H](O[C@H]2[C@@H](O)[C@H](O[C@@H]3[C@@H](O)[C@H](N)C[C@H](N)[C@H]3O[C@H]3O[C@H](CN)[C@@H](O)[C@H](O)[C@H]3N)O[C@@H]2CO)[C@H](N)[C@@H](O)[C@@H]1O", "study.system": "Estrogen receptor (Homo sapiens, UniProt P03372)", "IC50": "Not Active"}
{"smiles.structure": "COc1ccc(/C=C/C(=O)Nc2ccccc2C(=O)O)cc1OC", "study.system": "Estrogen receptor (Homo sapiens, UniProt P03372)", "IC50": "Not Active"}
{"smiles.structure": "Nc1ccc(S(=O)(=O)Nc2nccs2)cc1", "study.system": "Estrogen receptor (Homo sapiens, UniProt P03372)", "IC50": "Not Active"}

* * *

Target: Thromboxane-A synthase (Homo sapiens, UniProt P24557);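 further: enzyme inhibition assay with PGH2 supplied as substrate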; further: in other assays of this panel Not Active means under 50% inhibition at 10 µM
Sequence (P24557 whole entry): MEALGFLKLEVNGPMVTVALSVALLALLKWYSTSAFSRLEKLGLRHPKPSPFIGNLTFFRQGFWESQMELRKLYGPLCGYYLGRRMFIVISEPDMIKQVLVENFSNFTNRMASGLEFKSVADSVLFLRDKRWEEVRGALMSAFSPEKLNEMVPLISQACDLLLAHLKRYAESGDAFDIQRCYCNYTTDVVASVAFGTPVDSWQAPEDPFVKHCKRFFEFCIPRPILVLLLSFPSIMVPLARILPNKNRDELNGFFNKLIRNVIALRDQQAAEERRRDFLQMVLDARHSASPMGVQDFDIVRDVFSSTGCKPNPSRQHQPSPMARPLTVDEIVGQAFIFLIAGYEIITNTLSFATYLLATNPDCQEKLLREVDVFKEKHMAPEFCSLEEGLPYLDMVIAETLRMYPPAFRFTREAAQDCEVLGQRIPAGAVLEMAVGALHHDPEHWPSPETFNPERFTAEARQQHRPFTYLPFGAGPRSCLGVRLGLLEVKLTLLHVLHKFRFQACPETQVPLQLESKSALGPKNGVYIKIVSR
Experiment: biochemical
Assay type: tissue-based, Platelet
Details: platelet

{"compound": "CO[C@H]1[C@@H](O)[C@H](N)[C@@H](O[C@H]2O[C@H]([C@H](C)N)CC[C@H]2N)[C@H](O)[C@@H]1N(C)C(=O)CN", "IC50": "Not Active"}
{"compound": "CC(C)C[C@H]1C(=O)N2CCC[C@H]2[C@]2(O)O[C@](NC(=O)[C@@H]3C=C4c5cccc6[nH]c(Br)c(c56)C[C@H]4N(C)C3)(C(C)C)C(=O)N12", "IC50": "Not Active"}
{"compound": "CC(C(=O)O)c1ccc(-c2ccccc2)c(F)c1 (stereo not given)", "IC50": "Not Active"}
{"compound": "Nc1nc2c(c(=O)[nH]1)N(C=O)C(CNc1ccc(C(=O)N[C@@H](CCC(=O)O)C(=O)O)cc1)CN2 (stereo not given in full)", "IC50": "Not Active"}
{"compound": "O=P(O)(O)C(O)(Cc1cccnc1)P(=O)(O)O", "IC50": "Not Active"}
{"compound": "C[C@]12CCC(=O)C=C1CC[C@@H]1[C@@H]2[C@@H](O)C[C@@]2(C)[C@H]1CC[C@]2(O)C(=O)CO [HYDROCORTISONE]", "IC50": "Not Active"}
{"compound": "CC(=O)Nc1nnc(S(N)(=O)=O)s1 [ACETAZOLAMIDE]", "IC50": "Not Active"}
{"compound": "CC(C)(C)NC[C@H](O)COc1nsnc1N1CCOCC1", "IC50": "Not Active"}
{"compound": "CC(=O)O[C@]1(C(C)=O)CC[C@H]2[C@@H]3C=C(C)C4=CC(=O)CC[C@]4(C)[C@H]3CC[C@@]21C [MEGESTROL ACETATE]", "IC50": "Not Active"}
{"compound": "CCOC(=O)[C@H](CCc1ccccc1)N[C@@H](C)C(=O)N1Cc2ccccc2C[C@H]1C(=O)O", "IC50": "Not Active"}
{"compound": "C[C@]12C/C(=C/O)C(=O)C[C@@H]1CC[C@@H]1[C@@H]2CC[C@@]2(C)[C@H]1CC[C@]2(C)O", "IC50": "Not Active"}
{"compound": "Cc1cccc(Nc2cc(Cl)nc(SCC(=O)O)n2)c1C", "IC50": "Not Active"}
{"compound": "CC(C)(Sc1cc(C(C)(C)C)c(O)c(C(C)(C)C)c1)Sc1cc(C(C)(C)C)c(O)c(C(C)(C)C)c1", "IC50": "Not Active"}
{"compound": "Clc1cc2c(cc1Cl)Oc1cc(Cl)c(Cl)cc1O2", "IC50": "Not Active"}
{"compound": "Nc1nc(N)nc(NC2CC2)n1", "IC50": "Not Active"}

* * *

Target: Type-2 angiotensin II receptor (Homo sapiens, UniProt P50052); further: in other assays of this panel Not Active means under 50% inhibition at 10 µM
Sequence (P50052 whole entry): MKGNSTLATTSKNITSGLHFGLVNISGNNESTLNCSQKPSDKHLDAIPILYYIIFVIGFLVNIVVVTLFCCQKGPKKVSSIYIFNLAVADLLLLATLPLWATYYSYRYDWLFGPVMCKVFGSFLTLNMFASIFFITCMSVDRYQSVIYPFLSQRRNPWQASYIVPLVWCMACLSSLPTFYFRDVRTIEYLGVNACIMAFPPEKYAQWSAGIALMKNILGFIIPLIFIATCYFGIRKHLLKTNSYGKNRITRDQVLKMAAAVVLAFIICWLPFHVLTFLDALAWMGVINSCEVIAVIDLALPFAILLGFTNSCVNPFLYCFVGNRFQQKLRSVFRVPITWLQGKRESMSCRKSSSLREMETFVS
Type: cell-based
Settings: cho-k1
readout.label: IC50

{"substance": "INSULIN HUMAN", "result.value": "Not Active"}
{"substance": "THIMEROSAL", "result.value": "Not Active"}
{"substance": "POLYVINYL ALCOHOL", "result.value": "Not Active"}
{"substance": "COBALT(II) ACETYLACETONATE", "result.value": "Not Active"}
{"substance": "STANNOUS FLUORIDE", "result.value": "Not Active"}

* * *

Listed here are compounds together with their documented pIC50.
Target: Glucocorticoid receptor (Homo sapiens, UniProt P04150); further: in other assays of this panel Not Active means under 50% inhibition at 10 µM
Sequence (P04150 whole entry): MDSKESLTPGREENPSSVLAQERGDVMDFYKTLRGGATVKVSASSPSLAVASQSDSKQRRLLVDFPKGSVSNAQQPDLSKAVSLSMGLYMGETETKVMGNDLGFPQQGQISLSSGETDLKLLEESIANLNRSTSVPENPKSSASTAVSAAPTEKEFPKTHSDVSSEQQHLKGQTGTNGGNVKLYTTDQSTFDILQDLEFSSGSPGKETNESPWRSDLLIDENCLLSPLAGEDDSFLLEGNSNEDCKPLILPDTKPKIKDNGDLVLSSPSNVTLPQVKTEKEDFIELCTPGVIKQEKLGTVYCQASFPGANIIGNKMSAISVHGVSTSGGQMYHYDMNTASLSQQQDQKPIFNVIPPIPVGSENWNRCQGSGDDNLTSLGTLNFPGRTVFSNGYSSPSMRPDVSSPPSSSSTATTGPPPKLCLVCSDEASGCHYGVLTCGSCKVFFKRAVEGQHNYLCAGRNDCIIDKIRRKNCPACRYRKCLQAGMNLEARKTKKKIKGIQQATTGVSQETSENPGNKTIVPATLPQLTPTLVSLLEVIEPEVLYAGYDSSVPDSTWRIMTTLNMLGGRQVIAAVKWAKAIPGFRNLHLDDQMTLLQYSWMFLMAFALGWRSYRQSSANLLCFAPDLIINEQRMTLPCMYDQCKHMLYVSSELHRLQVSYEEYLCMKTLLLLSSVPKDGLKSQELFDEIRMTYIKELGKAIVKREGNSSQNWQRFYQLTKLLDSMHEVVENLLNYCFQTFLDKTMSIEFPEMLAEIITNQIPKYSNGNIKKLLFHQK
Assay: biochemical
pIC50: −log10 of the molar value.

{"compound": "C#C[C@]1(O)CC[C@H]2[C@@H]3CCC4=Cc5oncc5C[C@]4(C)[C@H]3CC[C@@]21C", "pIC50": 5.37}
{"compound": "CC(=O)O[C@]1(C(C)=O)CC[C@H]2[C@@H]3C=C(C)C4=CC(=O)CC[C@]4(C)[C@H]3CC[C@@]21C [MEGESTROL ACETATE]", "pIC50": 7.72}
{"compound": "C#C[C@]1(O)CC[C@H]2[C@@H]3CCc4cc(O)ccc4[C@H]3CC[C@@]21C", "pIC50": 5.77}
{"compound": "C[C@]12CC[C@H]3[C@@H](CCC4=CC(=O)CC[C@@]43C)[C@@H]1CC[C@@H]2O", "pIC50": 5.49}

* * *

Biological target: Muscarinic acetylcholine receptor M5 (Homo sapiens, UniProt P08912); further: in other assays of this panel Not Active means under 50% inhibition at 10 µM
Sequence (P08912 whole entry): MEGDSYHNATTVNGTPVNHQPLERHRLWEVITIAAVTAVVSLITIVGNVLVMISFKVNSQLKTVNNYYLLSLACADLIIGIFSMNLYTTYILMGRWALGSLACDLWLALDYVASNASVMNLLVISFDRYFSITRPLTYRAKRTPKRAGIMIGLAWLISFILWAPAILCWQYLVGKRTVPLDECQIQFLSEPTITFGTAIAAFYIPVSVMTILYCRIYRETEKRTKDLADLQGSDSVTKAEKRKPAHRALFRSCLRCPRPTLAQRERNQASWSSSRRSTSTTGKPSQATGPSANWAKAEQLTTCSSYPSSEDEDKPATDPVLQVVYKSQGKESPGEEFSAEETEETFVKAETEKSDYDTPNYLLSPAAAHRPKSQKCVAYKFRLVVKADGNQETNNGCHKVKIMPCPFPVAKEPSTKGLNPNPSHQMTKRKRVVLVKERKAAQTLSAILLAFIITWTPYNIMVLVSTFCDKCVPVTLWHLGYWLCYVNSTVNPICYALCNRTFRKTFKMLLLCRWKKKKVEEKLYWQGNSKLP
Assay type: cell membranes, Membrane
Settings: cho-k1
readout.label: IC50

{"compound": "CC[C@H]1OC(=O)[C@H](C)[C@@H](O[C@H]2C[C@@](C)(OC)[C@@H](O)[C@H](C)O2)[C@H](C)[C@@H](O[C@@H]2O[C@H](C)C[C@H](N(C)C)[C@H]2O)[C@](C)(OC)C[C@@H](C)C(=O)[C@H](C)[C@@H](O)[C@]1(C)O [CLARITHROMYCIN]", "study.system": "Muscarinic acetylcholine receptor M5 (Homo sapiens, UniProt P08912)", "result.value": "Not Active"}
{"compound": "CC[C@H]1OC(=O)[C@H](C)[C@@H](O[C@H]2C[C@@](C)(OC)[C@@H](O)[C@H](C)O2)[C@H](C)[C@@H](O[C@@H]2O[C@H](C)C[C@H](N(C)C)[C@H]2O)[C@](C)(O)C[C@@H](C)CN(C)[C@H](C)[C@@H](O)[C@]1(C)O [AZITHROMYCIN]", "study.system": "Muscarinic acetylcholine receptor M5 (Homo sapiens, UniProt P08912)", "result.value": "Not Active"}

* * *

Test: DRUGMATRIX: Glutamate, NMDA, Agonism radioligand binding (ligand: [3H] CGP-39653)
Type: cell membranes, Rattus norvegicus, Wistar, Cerebral cortex, Membrane
Conditions: Not Active = under 50% inhibition at 10 µM

{"compound": "CC(C)C[C@H]1C(=O)N2CCC[C@H]2[C@]2(O)O[C@](NC(=O)[C@@H]3C=C4c5cccc6[nH]c(Br)c(c56)C[C@H]4N(C)C3)(C(C)C)C(=O)N12", "Ki": "Not Active"}
{"compound": "O=C(O)C(Cl)(Cl)Cl", "Ki": "Not Active"}
{"compound": "O=c1cc(-c2ccccc2)oc2ccc3ccccc3c12", "Ki": "Not Active"}
{"compound": "OCCN1CCN(CCCN2c3ccccc3Sc3ccc(Cl)cc32)CC1", "Ki": "Not Active"}
{"compound": "CC(=O)O[C@H]1C[C@@H]2CC[C@@H]3[C@H](CC[C@@]4(C)[C@H]3C[C@H]([N+]3(C)CCCCC3)[C@@H]4OC(C)=O)[C@@]2(C)C[C@@H]1N1CCCCC1.[Br-] [VECURONIUM BROMIDE]", "Ki": "Not Active"}
{"compound": "CCS(=O)(=O)CCn1c([N+](=O)[O-])cnc1C", "Ki": "Not Active"}
{"compound": "C=C(CC)C(=O)c1ccc(OCC(=O)O)c(Cl)c1Cl", "Ki": "Not Active"}
{"compound": "CC(=O)OCC(CCn1cnc2cnc(N)nc21)COC(C)=O", "Ki": "Not Active"}
